Hey, just so you know, these numbers are from ChEMBL document CHEMBL5726262.

Target: Bromodomain-containing protein 4 (Homo sapiens, UniProt O60885)
Experiment: Time-Resolved Fluorescence Resonance energy Transfer (TR-FRET) Assay: For this purpose, a time-resolved fluorescence resonance energy transfer (TR-FRET) assay was used, which measures the binding between N-terminally His6-tagged BRD4(1) (amino acids 44-168) and a synthetic acetylated histone H4 (Ac-H4) peptide with sequence GRGK(Ac)GGK(Ac)GLGK(Ac)GGAK(Ac)RHGSGSK-biotin. The recombinant BRD4 protein produced in-house according to Filippakopoulos et al., Cell, 2012, 149:214-231 was expressed in E. coli and purified by means of (Ni-NTA) affinity and (Sephadex G-75) size exclusion chromatography. The Ac-H4 peptide can be purchased, for example, from Biosyntan (Berlin, Germany).In the assay, typically 11 different concentrations of each substance (0.1 nM, 0.33 nM, 1.1 nM, 3.8 nM, 13 nM, 44 nM, 0.15 μM, 0.51 μM, 1.7 μM, 5.9 μM and 20 μM) were analysed as duplicates on the same microtitre plate. For this purpose, 100-fold concentrated solutions in DMSO were prepared by serial dilutions (1:3.4) of a 2 mM stock solution into a clear, 384-well microtitre plate (Greiner Bio-One, Frickenhausen, Germany). From this, 50 nl were transferred into a black test plate (Greiner Bio-One, Frickenhausen, Germany). The test was started by the addition of 2 μl of a BRD4 solution of 2.5 times the concentration (final concentration typically 10 to 50 nM in the 5 μl of reaction volume) in aqueous assay buffer [50 mM HEPES pH 7.5, 50 mM sodium chloride (NaCl), 0.25 mM CHAPS and 0.05% bovine serum albumin (BSA)] to the substances in the test plate. This was followed by a 10-minute incubation step at 22° C. for the pre-equilibration of putative complexes between BRD4 and the substances. Subsequently, 3 μl of a solution of 1.67 times the concentration (in assay buffer) consisting of Ac-H4 peptide (83.5 nM) and TR-FRET detection reagents [16.7 nM anti-6His-XL665 and 3.34 nM streptavidin cryptate (both from Cisbio Bioassays, Codolet, France), and 668 mM potassium fluoride (KF)] were added.
ATTRIBUTE_MEASURED: pIC50
pIC50 is a log-scale quantity: -log10 of the concentration expressed in molar.

For the compound shown here, "Cc1nnc2n1-c1ccc(OC(F)(F)F)cc1C(c1ccc(Cl)cc1)=C[C@H]2CC(=O)N1CC2(COC2)C1" , give the reported pIC50. 6.66
